Tested on: Aspergillus fumigatus 231
Experiment: In vitro antifungal broth microdilution test
Type: cell-based
Details: Aspergillus fumigatus, 231; 48h, RPMI 1640, pH 7.0, 35 °C; read-out: MIC/IC80 AF
measuredQuantity: MIC

compound: O=c1[nH]c2ccccc2c(O)c1[N+](=O)[O-] [Compound 5, 4-Hydroxy-3-nitroquinolin-2(1H)-one]
subjectOfTest: Aspergillus fumigatus 231
reportedMeasurement: > 500 µM
//
compound: Nc1c(O)c2ccccc2[nH]c1=O [Compound 6, 3-Amino-4-hydroxyquinolin-2(1H)-one]
subjectOfTest: Aspergillus fumigatus 231
reportedMeasurement: > 500 µM
//
compound: O=C(O)c1cc2c(O)cc(=O)[nH]c2cc1O
subjectOfTest: Aspergillus fumigatus 231
reportedMeasurement: > 500 µM

stdin: MIC for "O=C(O)c1ccc2[nH]c(=O)cc(O)c2c1O" ?
stdout: > 500 µM

stdin: Now try OC(Cn1cncn1)(Cn1cncn1)c1ccc(F)cc1F [FLU, Fluconazole, reference compound] .
stdout: > 125 µM

stdin: Now try "CCOC(=O)c1c(O)c2ccccc2[nH]c1=O" .
stdout: > 500 µM

stdin: Now try "O=C(O)c1c(O)c2ccccc2[nH]c1=O" .
stdout: > 500 µM

stdin: Now try "O=C(O)c1ccc(NC(=O)c2c(O)c3cc(C(=O)O)ccc3[nH]c2=O)cc1" .
stdout: > 500 µM

stdin: Now try "O=C(/C=C/c1ccccc1)Nc1c(O)c2ccccc2[nH]c1=O" .
stdout: > 125 µM

stdin: Now try "O=C(O)c1ccc2[nH]c(=O)c(/N=N/c3cc(Cl)c([N+](=O)[O-])cc3Cl)c(O)c2c1" .
stdout: 250 µM

stdin: Now try Cc1ccc2[nH]c(=O)cc(O)c2c1 [Compound 2, 4-Hydroxy-6-methylquinolin-2(1H)-one] .
stdout: > 500 µM
